System: Plasmodium berghei
Assay Details: Luciferase/luciferin-expressing antifolate-resistant parasites were used to infect a culture of HepG2 cells that were pre-incubated with compounds. Infected hepatocytes emit light due to the luciferase reaction. Assay results are presented as the percent inhibition of light emission compared to control. […]
Assay type: functional
Experimental Conditions: sporozoite, PBLUC_HILL_SLOPE 2.79, 12.2, PBLUC_R_SQUARED 0.127, 0.675, read-out: LUCIFERASE INFECTION ASSAY - IC50
pIC50: −log10 of the molar value.

| Compound Structure | pIC50 |
| --- | --- |
| COc1ccc(CN(Cc2n/c(=N\c3ccccc3C)nc(N)[nH]2)Cc2n/c(=N\c3ccccc3C)nc(N)[nH]2)cc1OC | 5.56 |

Reference source: ChEMBL document CHEMBL4483862
